assay remarks: method code SF-AS, from DOI: 10.1248/cpb.22.2064
recorded conditions: pH 7.4
assay metric: logD
API note: the answer field is a bare number with no unit suffix.

Field: example entries. Status: answers known.
Cc1c(N2CCOCC2)c(=O)n(-c2ccccc2)c(=O)n1C1CCCCC1; 2.37
Cc1c(NCC(C)C)c(=O)n(-c2ccccc2)c(=O)n1-c1ccccc1; 2.4
Cc1c(N2CCCCC2)c(=O)n(C)c(=O)n1-c1ccccc1; 3.21

Consider Cc1c(N2CCCCC2)c(=O)n(-c2ccccc2)c(=O)n1-c1ccccc1 . Its measured logD is 3.24

###

assay remarks: method code SF-AS, from DOI: 10.1248/cpb.22.2064
recorded conditions: pH 7.4
Listed below: logD values for each entry.
# respond with the number and nothing more

Past entries and their recorded results:
Cc1c(N(C)C)c(=O)n(C2CCCC2)c(=O)n1C; 2.65
Cc1c(NCC(C)C)c(=O)n(-c2ccccc2)c(=O)n1C1CCCCC1; 3.27

logD reported for this compound Cc1c(N(C)C)c(=O)[nH]c(=O)n1C1CCCCC1 : 2.53
